assay name: Liver microsome metabolic stability (LMS) assay, mouse
recorded conditions: mouse, liver microsomes
measurement kind: half-life at 1 μM (min)
Field: numeric (min). Do not append units.

smi	half-life at 1 μM [min]
CN(C(=O)c1ccc2nc(N)c3cncn3c2c1)[C@@H]1COc2cc(C(F)(F)F)ccc21	68.2

Prompt: Give the measured half-life at 1 μM of "CN(C(=O)c1cc2c(cn1)nc(N)c1cncn12)[C@@H]1COc2cc(C(F)(F)F)ccc21" .
Response: 132

###

assay name: in vitro
recorded conditions: dog, hepatocytes
measurement kind: CLint scaled at 3 μM (L/h/kg)
Your answer should be a plain number; it is taken to be in L/h/kg.

Prompt: Given the entry CCOc1ccc2ccc(=O)oc2c1 [Ref. 1, 7-Ethoxycoumarin] , report its measured CLint scaled at 3 μM.
Response: 215

###

assay name: Hepatic metabolic stability (HMS) assay, dog hepatocytes
recorded conditions: dog, cryopreserved hepatocytes
measurement kind: CLint scaled at 3 μM (L/h/kg)
Numbers only here, please. The scale is L/h/kg.

Prompt: Recorded CLint scaled at 3 μM of O=c1ccc2ccc(O)cc2o1 [Ref. 2, 7-Hydroxycoumarin, reference compound] , please.
Response: 196

###

assay name: In vivo pharmacokinetics assay in mice via IV and PO
Set-up: species or system ICR mice
recorded conditions: PO 10 mg/kg
Below, each entry is listed with its recorded AUC0-t.
Write the answer as a number in ng·h/mL, unit excluded.

The following molecules have reported results that may help.
molecule	AUC0-t, ng·h/mL
CN(C(=O)c1cc2c(cn1)nc(N)c1cncn12)C1COc2cc(C(F)(F)F)ccc21 (stereo not shown) [Compound 19]	32782
CN(C(=O)c1cc2c(cn1)nc(N)c1cncn12)C1CC(F)(F)c2cc(C(F)(F)F)ccc21 (stereo not shown) [Compound 24]	44942
CN(C(=O)c1ccc2nc(N)c3cncn3c2c1)C1COc2cc(C(F)(F)F)ccc21 (stereo not shown) [Compound 17]	50800

Prompt: What AUC0-t value was documented for this molecule, CN(C(=O)c1cc2c(cn1)nc(N)c1cncn12)C1COc2cc(C(F)(F)F)ccc21 (stereo not shown) [Compound 21] ?
Response: 43397

###

assay name: In vivo pharmacokinetics assay in mice via IV and PO
Set-up: species or system ICR mice
recorded conditions: PO 10 mg/kg, plasma
We begin with a simple list: items and their reported Cmax.
Report the value in µg/mL with no unit label.

compound	result value
CN(C(=O)c1ccc2nc(N)c3cncn3c2c1)C1COc2cc(C(F)(F)F)ccc21 (stereo not shown)	4.627
CN(C(=O)c1cc2c(cn1)nc(N)c1cncn12)C1COc2cc(C(F)(F)F)ccc21 (stereo not shown) [Compound 19]	2.62
CN(C(=O)c1cc2c(cn1)nc(N)c1cncn12)C1CC(F)(F)c2cc(C(F)(F)F)ccc21 (stereo not shown)	3.355

Prompt: So what's the measured Cmax for this one? CN(C(=O)c1cc2c(cn1)nc(N)c1cncn12)C1COc2cc(C(F)(F)F)ccc21 (stereo not shown) [Compound 21]
Response: 2.82

###

measured on: CYP1A2 (Homo sapiens (Human), UniProt P05177)
Sequence (P05177 whole entry): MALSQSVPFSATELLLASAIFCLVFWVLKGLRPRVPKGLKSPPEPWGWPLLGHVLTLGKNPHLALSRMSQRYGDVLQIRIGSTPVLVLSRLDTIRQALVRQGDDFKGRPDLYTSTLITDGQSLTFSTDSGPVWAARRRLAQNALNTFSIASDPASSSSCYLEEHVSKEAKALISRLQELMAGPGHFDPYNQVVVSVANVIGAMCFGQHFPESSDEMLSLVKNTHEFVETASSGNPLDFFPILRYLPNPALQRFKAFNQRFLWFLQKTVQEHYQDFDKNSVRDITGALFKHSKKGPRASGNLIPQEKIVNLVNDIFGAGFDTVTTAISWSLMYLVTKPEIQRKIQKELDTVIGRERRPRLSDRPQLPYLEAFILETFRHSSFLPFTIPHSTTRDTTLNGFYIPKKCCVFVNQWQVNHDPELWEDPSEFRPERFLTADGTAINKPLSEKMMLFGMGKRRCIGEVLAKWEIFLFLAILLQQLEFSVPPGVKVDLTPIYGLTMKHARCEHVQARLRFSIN
recorded conditions: microsomes
pIC50: −log10 of the molar value.
measurement kind: pIC50

Prompt: Given CN(C(=O)c1ccc2nc(N)c3cncn3c2c1)C1COc2cc(C(F)(F)F)ccc21 (stereo not shown) [Compound 17] , state its recorded pIC50.
Response: < 4.52

###

assay name: in vitro
recorded conditions: cynomolgus monkey, microsomes
measurement kind: half-life at 1 μM (min)
Respond numerically; units are min and should not be typed.

Prompt: // query half-life at 1 μM value for entry "CN(C(=O)c1ccc2nc(N)c3cncn3c2c1)[C@@H]1COc2cc(C(F)(F)F)ccc21"
Response: 56.1

###

assay name: in vitro
recorded conditions: rat, hepatocytes
measurement kind: CLint scaled at 3 μM (mL/min/kg)
# output: bare number, implied unit mL/min/kg

Prompt: CLint scaled at 3 μM lookup needed for "CCOc1ccc2ccc(=O)oc2c1" , thanks.
Response: 184

###

assay name: in vitro
recorded conditions: dog, microsomes
Reported half-life at 1 μM values are given for each entry in this list.

smi	half-life at 1 μM
CN(C(=O)c1ccc2nc(N)c3cncn3c2c1)[C@@H]1COc2cc(C(F)(F)F)ccc21	> 2.42 h

Prompt: Fill in: half-life at 1 μM of "O=C(O)Cc1ccccc1Nc1c(Cl)cccc1Cl" is ___
Response: > 2.42 h

###

assay name: Hepatic metabolic stability (HMS) assay, cynomolgus monkey hepatocytes
recorded conditions: cynomolgus monkey, cryopreserved hepatocytes
measurement kind: half-life at 3 μM
Please answer using a numeric value trailed by its unit.

Prompt: // lookup half-life at 3 μM for O=c1ccc2ccc(O)cc2o1 [Ref. 2, 7-Hydroxycoumarin, reference compound]
Response: 2.1 min

###

assay name: in vitro
recorded conditions: dog, microsomes
measurement kind: CLint scaled at 1 μM

Prompt: So what does the record say about CLint scaled at 1 μM for "O=C(O)Cc1ccccc1Nc1c(Cl)cccc1Cl" ?
Response: < 13.8 mL/min/kg

###

measured on: PRMT5/MEP50 (Homo sapiens (Human))
Sequence (O14744 whole entry): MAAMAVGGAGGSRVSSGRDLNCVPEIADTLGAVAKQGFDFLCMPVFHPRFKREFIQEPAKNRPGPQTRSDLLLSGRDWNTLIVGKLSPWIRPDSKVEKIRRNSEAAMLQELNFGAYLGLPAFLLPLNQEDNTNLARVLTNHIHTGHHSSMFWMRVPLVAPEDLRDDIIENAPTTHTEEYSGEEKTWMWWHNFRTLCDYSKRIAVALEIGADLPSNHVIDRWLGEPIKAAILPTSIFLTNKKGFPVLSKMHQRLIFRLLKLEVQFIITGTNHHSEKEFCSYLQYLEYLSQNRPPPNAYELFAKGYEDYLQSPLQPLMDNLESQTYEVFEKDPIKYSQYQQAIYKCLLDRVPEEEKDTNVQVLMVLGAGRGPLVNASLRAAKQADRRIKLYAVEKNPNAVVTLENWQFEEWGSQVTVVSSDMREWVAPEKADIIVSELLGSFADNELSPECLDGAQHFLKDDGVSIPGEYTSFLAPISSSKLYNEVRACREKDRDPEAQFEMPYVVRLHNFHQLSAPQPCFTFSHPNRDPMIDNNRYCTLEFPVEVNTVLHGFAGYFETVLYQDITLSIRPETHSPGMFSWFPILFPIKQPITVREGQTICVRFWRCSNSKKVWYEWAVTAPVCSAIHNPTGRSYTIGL
Sequence (Q9BQA1 whole entry partner): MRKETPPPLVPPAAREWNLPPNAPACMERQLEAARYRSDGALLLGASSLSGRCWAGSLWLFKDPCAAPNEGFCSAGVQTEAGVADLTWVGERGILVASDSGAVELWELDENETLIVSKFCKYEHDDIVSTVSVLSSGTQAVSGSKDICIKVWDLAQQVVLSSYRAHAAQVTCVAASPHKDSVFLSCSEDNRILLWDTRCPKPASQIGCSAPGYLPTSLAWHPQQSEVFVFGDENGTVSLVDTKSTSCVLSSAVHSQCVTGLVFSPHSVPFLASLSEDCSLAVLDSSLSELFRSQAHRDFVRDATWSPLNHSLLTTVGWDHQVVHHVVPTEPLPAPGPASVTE
assay name: MTase-Glo methyl transferase assay (PRMT5 inhibition)
recorded conditions: 50 nM PRMT5/MEP50, 25 μM SAM, 5 μM Histone H4 peptide (1-21), read-out: IC50 for PRMT5 inhibiting
Consider the cut-off 90 nM. If the recorded IC50 is strictly smaller, the label is Y; if not, the label is N.

Below are worked cases with known answers.
compound	category label
CN(C(=O)c1cc2c(cn1)nc(N)c1cncn12)C1CC(F)(F)c2cc(C(F)(F)F)ccc21 (stereo not drawn) [Compound 24]	Y
CN(C(=O)c1ccc2nc(N)c3cncn3c2c1)C1COc2cc(C(F)(F)F)ccc21 (stereo not drawn) [Compound 17]	Y
Cc1nc(C)n2c1c(N)nc1ccc(C(=O)N(Cc3ccc(C(F)(F)F)cn3)[C@H](C)c3ncccn3)cc12 [Compound 9]	N
Cn1ncc(-c2ccc3c(c2)nc(N)c2cncn23)c1-c1c(F)cc2ccccc2c1C#N [Compound 1]	Y

Moving on to another compound below.
Prompt: Just wondering, is IC50 of CN(C(=O)c1cc2c(cn1)nc(N)c1cncn12)C1COc2cc(C(F)(F)F)cnc21 (stereo not drawn) [Compound 31] below 90 nM?
Response: N

###

assay name: Caco-2 cell monolayer model assay (permeability)
Assay type: in vitro ADME
recorded conditions: human, Caco-2, pH 7.4
measurement kind: efflux ratio at 2 h, 1 μM
Kindly provide the number alone.

Prompt: Need efflux ratio at 2 h, 1 μM, item CN(C(=O)c1ccc2nc(N)c3cncn3c2c1)[C@@H]1COc2cc(C(F)(F)F)ccc21 [Compound 12]
Response: 1.98

###

assay name: In vivo pharmacokinetics assay in mice via IV and PO
Design: species or system ICR mice
recorded conditions: PO 30 mg/kg, plasma
Consider the following molecules and their measured C24 h readings.
Provide the reading as a plain figure in ng/mL.

molecule	readout units	C24 h
CN(C(=O)c1cc2c(cn1)nc(N)c1cncn12)C1COc2cc(C(F)(F)F)ccc21 (stereo not shown) [Compound 19]	ng/mL	540
CN(C(=O)c1ccc2nc(N)c3cncn3c2c1)C1COc2cc(C(F)(F)F)ccc21 (stereo not shown)	ng/mL	860
CN(C(=O)c1cc2c(cn1)nc(N)c1cncn12)C1COc2cc(C(F)(F)F)ccc21 (stereo not shown) [Compound 21]	ng/mL	1257

Pending molecule:
Prompt: Recorded C24 h of "CN(C(=O)c1cc2c(cn1)nc(N)c1cncn12)[C@@H]1COc2cc(C(F)(F)F)ccc21" , please.
Response: 574

###

assay name: Liver microsome metabolic stability (LMS) assay, dog
recorded conditions: dog, microsomes
measurement kind: half-life at 1 μM (min)
I only need the number, in min, no unit after it.

Prompt: Using the record for C[C@]12CC[C@H]3[C@@H](CCC4=CC(=O)CC[C@@]43C)[C@@H]1CC[C@@H]2O [Ref. 4, Testosterone, reference compound] , report its half-life at 1 μM.
Response: 34

###

assay name: in vitro
recorded conditions: human, hepatocytes
measurement kind: CLint scaled at 3 μM (mL/min/kg)
Your answer should be a plain number; it is taken to be in mL/min/kg.

Prompt: // CLint scaled at 3 μM lookup, key: "CCOc1ccc2ccc(=O)oc2c1"
Response: 201

###

// CLint (hep) D lookup, one value per entry
Tested on: cryopreserved hepatocytes
assay name: Hepatic metabolic stability (HMS) assay, dog hepatocytes
recorded conditions: dog, hepatocytes
Form entry: value (μL/min/10^6) — number only.

molecule	result value
CN(C(=O)c1cc2c(cn1)nc(N)c1cncn12)C1CC(F)(F)c2cc(C(F)(F)F)ccc21 (stereo not shown) [Compound 24]	6.5

Prompt: // query CLint (hep) D value for entry O=c1ccc2ccc(O)cc2o1 [Ref. 2, 7-Hydroxycoumarin, reference compound]
Response: 475.1

###

assay name: in vitro
recorded conditions: rat, microsomes
measurement kind: half-life at 1 μM

Prompt: Would you mind telling me what half-life at 1 μM value was observed for "CN(C(=O)c1ccc2nc(N)c3cncn3c2c1)[C@@H]1COc2cc(C(F)(F)F)ccc21" ?
Response: > 2.42 h
